- Tested on: Malme-3M
- Procedure summary: NCI tumour cell line growth inhibition, 48 h
The source made the active and inactive calls. Cut-off read from the data, not from the text of the source: active = GI50 up to about 1.1 µM and inactive = higher.
Result type: GI50

The examples below pair each entry with its known result.
COc1cc2c(cc1O)CCN[C@@]21CS[C@H]2c3c(OC(C)=O)c(C)c4c(c3C(COC1=O)N1C2C2NC(Cc3cc(C)c(OC)c(O)c32)[C@@H]1C#N)OCO4 (some centres undefined)	< 0.01 µM (active)
CCN(CCCl)CCCCNc1c2ccccc2nc2ccc(OC)cc12	0.957 µM (active)
CSCCOC(=O)C(=[N+]=[N-])c1ccc([N+](=O)[O-])cc1	> 100 µM (inactive)
CCCCCCCCCCCOc1ccc(C(=O)C(=O)c2ccc(OCCCCCCCCCCC)c(OCCCCCCCCCCC)c2)cc1OCCCCCCCCCCC	> 100 µM (inactive)
O=C(Nc1cccc2ccccc12)Nn1cnnc1	> 100 µM (inactive)

Would you kindly share the measured GI50 for COCn1c(C)c(C)c2c(=O)oc(=O)[nH]c21 ? > 100 µM (inactive)

Follow-up item: Clc1ccc2c(NCCCCCCNc3ccnc4cc(Cl)ccc34)ccnc2c1 12.8 µM (inactive)

Please give the result for COc1ccc2nc(NC(=O)C(=O)C(C#N)c3ccc([N+](=O)[O-])cc3)sc2c1 (centres undefined) too. > 100 µM (inactive)

Similarly, CCN1C[C@]2(COC)[C@H](O)C[C@H](OC)[C@]34C1[C@H]([C@H](OC)[C@H]23)[C@]1(OC(C)=O)[C@H]2[C@@H](OC(=O)c3ccccc3)[C@](O)(C[C@H]24)[C@@H](OC)[C@@H]1O ? > 100 µM (inactive)

----------
- Test system: COLO 205
- Procedure summary: NCI tumour cell line growth inhibition, 48 h
Activity calls are given as the source filed them. Cut-off read from the data, not from the text of the source: active = GI50 up to about 1.1 µM and inactive = higher.
Result type: GI50

// lookup GI50 for O=c1c2ccccc2nc(N/N=C/c2ccc(Cl)cc2)n1-c1ccccc1 > 100 µM (inactive)

Repeat with Cn1c2ccccc2c2c3c(c4c5ccccc5n(C5OC(CO)C(O)C(O)C5O)c4c21)C(=O)OC3=O (stereo not drawn) > 100 µM (inactive)

Field entry: CCOc1ncn(-c2ccc(NC(=S)NC3OC(CO)C(O)C(O)C3O)cc2)n1 (stereo not drawn) > 100 µM (inactive)

How about COc1cc(C2CC(C)(N3CCOCC3)Oc3cc4c(cc32)OCO4)cc(OC)c1OC (stereo not drawn) ? 0.845 µM (active)

What would you report for CC(=O)/N=C1/N(/C=C2\C(=O)Oc3ccccc3C2=O)C(=O)/C(=C/c2ccc(NC(C)=O)cc2)N1C ? > 100 µM (inactive)

Same question for CCOC(=O)c1[nH]cc(C)c1-c1ccc2c(-c3ccccc3)nc3ccccc3n12 please. 2.86 µM (inactive)

Try this compound next: CCN1C[C@]2(COC)[C@H](O)C[C@H](OC)[C@]34C1[C@H]([C@H](OC)[C@H]23)[C@]1(OC(C)=O)[C@H]2[C@@H](OC(=O)c3ccccc3)[C@](O)(C[C@H]24)[C@@H](OC)[C@@H]1O > 100 µM (inactive)

Can you handle C=C1c2nc3ccccc3n2C=C(c2ccccc2)N1c1ccc([N+](=O)[O-])cc1 next? 6.52 µM (inactive)

# repeat for CC(=O)OC(CN1CCN(c2ccccn2)CC1)Cn1sc2nc(C)cc(C)c2c1=O (stereo not drawn) 15.8 µM (inactive)

Now this one: O=c1c2c(nc3n1CCC3)sc1c(O)c(Br)ccc12 11.8 µM (inactive)

Record: COc1ccc(OC/C(N)=N/NC(=O)c2ccncc2)cc1 > 100 µM (inactive)

Ok, now Brc1ccc2c(c1)-c1nc3nc4c(cc3cc1CC2)CCc1ccc(Br)cc1-4 > 100 µM (inactive)

Next compound: [N-]=[N+]=CC(=O)OCC1SCCCS1 > 100 µM (inactive)

----------
- Tested on: XF498
- Procedure summary: NCI tumour cell line growth inhibition, 48 h
Activity calls are given as the source filed them. No stated cut-off is given here; in the data, active = GI50 up to about 1.1 µM and inactive = higher.
Form entry, call: pick from active, inactive

# example entries with known answers
COc1ccc2c(c1OCC(=O)O)C(=O)C(CCC(=O)O)CC2 (stereo not given)	inactive
COC(=O)/C=C/C(=O)C1C(C(=O)OC)C2(C(=O)OC)CCC1(C(=O)OC)N2 (stereo not given)	active
Cc1ccc(/C=N/C23CC4CC(CC(C4)C2)C3)cc1	inactive
Nc1cc2[nH]cnc2c(=O)[nH]1 [DEZAGUANINE]	inactive

Attention now turns to another entry.
Hey, what did the test say about N=C(NNS(=O)(=O)c1ccccc1)Oc1ccc(Cl)cc1 ? inactive

----------
- Tested on: NCI-H23
- Procedure summary: NCI tumour cell line growth inhibition, 48 h
Active and inactive are the calls of the source. Cut-off read from the data, not from the text of the source: active = GI50 up to about 1.1 µM and inactive = higher.
Result type: GI50

// known answers, use as guide
COc1cccc(/C=C/C(=O)N2CC(CCl)c3c2cc(N)c2ccccc32)c1 (stereo unspecified)	0.00065 µM (active)
CCOC(=O)c1ccc(C(=O)/C(C#N)=C2\CCCN2)n1C	97.5 µM (inactive)
CN(C)c1ccc(-c2c(C#N)c(S)n(NS(=O)(=O)c3ccccc3)c(=O)c2C#N)cc1	30.8 µM (inactive)
C=CS(=O)(=O)CCN1CC1	> 10 µM (inactive)
COc1cc(OC)c2nc(C)c3c(c2c1)NCC3	6.34 µM (inactive)
CC1CNC(NS(=O)(=O)c2cc(C(=O)Nc3ccc(Cl)cc3)c(Cl)cc2S)=NN1 (stereo unspecified)	27.4 µM (inactive)
Nc1ccc2c(c1)NC(=O)[C@@H]1CCCN1C2=O	> 100 µM (inactive)
CC(=O)c1ccccc1NC(=O)C(=O)C(C(=O)c1ccc2ccccc2c1)C1OC(=O)c2ccccc21 (stereo unspecified)	6.49 µM (inactive)

Tell me reported GI50 for Nc1nc(N)nc(-c2cnccn2)n1 , tested with NCI-H23. > 100 µM (inactive)

Field entry: CC(C)(O)C1CC[C@]2(C)[C@H]3CC[C@@H]4[C@@]5(C)CCCC(C)(C)[C@@H]5CC[C@@]4(C)[C@]3(C)CC[C@@H]12 (stereo partly specified) > 100 µM (inactive)

Then this compound: C=C[C@]1(C)C[C@@H](OC(=O)CO)[C@@]2(C)[C@H](C)CC[C@]3(CCC(=O)[C@H]32)[C@@H](C)[C@@H]1O > 70.1 µM (inactive)

----------
- System: U-251
- Procedure summary: NCI tumour cell line growth inhibition, 48 h
Activity calls are given as the source filed them. Rule as the data show it: active = GI50 up to about 1.1 µM and inactive = higher.
Result type: GI50

The examples below pair each entry with its known result.
O=c1[nH]nc(Cn2c3ccc(Br)cc3c3nc4ccccc4nc32)n1C1CCCCC1	30.5 µM (inactive)
c1nc2cscc2c2cscc12	> 100 µM (inactive)
S=C(Nc1ccc(Br)cn1)NC12CC3CC(CC(C3)C1)C2	11.3 µM (inactive)
COC1(CC[C@H](C)COC2OC(CO)C(O)C(O)C2O)O[C@H]2C[C@H]3[C@@H]4CC=C5C[C@@H](OC6OC(CO)C(OC7OC(C)C(O)C(O)C7O)C(O)C6OC6OC(C)C(O)C(O)C6O)CC[C@]5(C)[C@H]4CC[C@]3(C)[C@H]2[C@@H]1C (stereo not given in full)	2.4 µM (inactive)
COc1cc(OC)c(OC)cc1/C=C1\C=Cc2ccccc21	9.12 µM (inactive)
CCOC(=O)CCC(NC(=O)c1ccc(Nc2cnc3cc(C(F)(F)F)ccc3n2)cc1)C(=O)OCC (stereo not given)	9.48 µM (inactive)

Given the molecule NC(=O)NC(=O)c1cccc(NC(=O)CF)c1 , what is its reported GI50? > 100 µM (inactive)

Moving on to CCCCCCCCCCCC1=NCCN1 49.9 µM (inactive)

Also O=[N+]([O-])c1cc(I)cc(/C=N/NS(=O)(=O)c2ccc(Cl)cc2)c1O , if possible. 18.7 µM (inactive)

// query: OCC(O)COCn1cc(Cn2ncc3c(SCc4ccccc4)ncnc32)nn1 (stereo not given) > 100 µM (inactive)

Next: c1ccc(B2OCC(C3OB(c4ccccc4)OC4COB(c5ccccc5)OC43)O2)cc1 (stereo not given) > 100 µM (inactive)

Try this molecule too: CC(C)(C)C(=O)Nc1cccc(-c2ccc[nH]2)n1 > 70.5 µM (inactive)

----------
- Test system: PC-3
- Procedure summary: NCI tumour cell line growth inhibition, 48 h
Activity calls are given as the source filed them. Rule as the data show it: active = GI50 up to about 1.1 µM and inactive = higher.
Result type: GI50

Examples from the recorded data:
O[C@H]1[C@H](O)[C@@H](Cn2nnc(-c3ccccc3)c2-c2ccccc2)OCO[C@@H]1Cn1nnc(-c2ccccc2)c1-c1ccccc1	2.68 µM (inactive)
C[N+](C)([O-])Cc1cc(-c2ccccc2)ccc1O	> 100 µM (inactive)
O=C(NCCN1CCCCC1)c1ccc(Br)cc1	> 100 µM (inactive)
CCCCCCCCCCCCCCCCCCNc1ccn(C2OC(COP(=O)(O)OCC3OC(n4cc(C)c(=O)[nH]c4=O)CC3N=[N+]=[N-])C(O)C2O)c(=O)n1 (stereo unspecified)	8.81 µM (inactive)

Endpoint output: GI50 of O=C(NC(CO)Cc1ccc(Oc2cc(CC(CO)NC(=O)OCc3ccccc3)ccc2OC(=O)OCc2ccccc2)cc1)OCc1ccccc1 (stereo unspecified) . Value? 11.4 µM (inactive)

Moving on to the next molecule: O=C(CCCn1ccnc1[N+](=O)[O-])NCCn1cnc([N+](=O)[O-])c1 > 100 µM (inactive)

Next molecule: O=C(Nc1cccc2ccccc12)Nn1cnnc1 > 100 µM (inactive)

# iterate: C[N+]1(CCC(=O)c2ccccc2)CCC2CCC(C2)C1 (stereo unspecified) > 100 µM (inactive)

Now give it for Cc1c(N2C(=O)C(Cl)C2c2ccc(Cl)cc2)c(=O)n(-c2ccccc2)n1C (stereo unspecified) too. > 100 µM (inactive)

Another molecule to check: CCCCCCOC(=O)C(N)Cc1ccc(OC)cc1 (stereo unspecified) > 100 µM (inactive)

Thanks! And CCOP(=O)(OCC)C1CC(n2cc(C)c(=O)[nH]c2=O)OC1CO (stereo unspecified) ? > 100 µM (inactive)

And for O=[N+]([O-])c1ccc2c(/N=N/c3c(O)ccc4ccccc34)c(O)cc(S(=O)(=O)O)c2c1 ? 6.98 µM (inactive)

Moving on to the next molecule: COc1cc(OCc2ccc3oc(=O)c(-c4ccccc4)nc3c2)cc(OC)c1OC > 100 µM (inactive)

And COC1(CC[C@H](C)COC2OC(CO)C(O)C(O)C2O)O[C@H]2C[C@H]3[C@@H]4CC=C5C[C@@H](OC6OC(CO)C(OC7OC(C)C(O)C(O)C7O)C(O)C6OC6OC(C)C(O)C(O)C6O)CC[C@]5(C)[C@H]4CC[C@]3(C)[C@H]2[C@@H]1C (stereo partly specified) ? 3.28 µM (inactive)

Follow-up entry: CC1(C)N=c2[nH]cnc2=C(C(N)=O)N1 > 100 µM (inactive)

How about Nn1c(=O)[nH]c2ncn(Cc3ccccc3)c2c1=O ? > 100 µM (inactive)

Another molecule to look at: COP(=O)(C(/C=C/c1ccccc1)OC(C)=O)[C@@H]1CCCC[C@H]1N(CC(C)(C)C)C(C)=O (stereo partly specified) 14 µM (inactive)

Same read-out for O=c1c2ccccc2nc(N/N=C/c2ccc(Cl)cc2)n1-c1ccccc1 ? 49.5 µM (inactive)

Ok, now C/C(=N\NC(=O)/C(C#N)=C\c1ccc(N(CCC#N)CCC#N)cc1)c1ccccc1 > 10 µM (inactive)

Next entry: C=C(C)CC1(O)C(=O)C(OCC)=C1OCC (stereo unspecified) > 100 µM (inactive)

How about this molecule: Cc1ccc(/N=C2\C(=O)C3=C(OC(C)(C)CC3)c3ccccc32)cc1 1.22 µM (inactive)

Next entry: O=C(O)c1cc(CCc2ccc(O)c(O)c2)ccc1O > 100 µM (inactive)

Then this molecule: CC[C@H](NC(=O)OC(C)(C)C)C(=O)NCP(=O)(OCc1ccc([N+](=O)[O-])cc1)OCc1ccc([N+](=O)[O-])cc1 34.8 µM (inactive)

Another molecule to look at: CN(NC(=O)c1cccs1)C1=NCCCN1 > 100 µM (inactive)

And what about the molecule O=C(OCc1ccccc1)N1CCNCCNCC1 ? > 100 µM (inactive)

Do the same for N=C(N)N/N=C/c1c(-c2ccc(Cl)cc2)nc2sc(Cl)cn12 please 3 µM (inactive)

Then this molecule: CC(=O)N1c2ccccc2Sc2cc(C(O)(C(F)(F)F)C(F)(F)F)ccc21 > 10 µM (inactive)
